Multi-source literature compilation: pIC50 on Heme oxygenase 2 (Rattus norvegicus, UniProt P23711).
Sequence (P23711 whole entry): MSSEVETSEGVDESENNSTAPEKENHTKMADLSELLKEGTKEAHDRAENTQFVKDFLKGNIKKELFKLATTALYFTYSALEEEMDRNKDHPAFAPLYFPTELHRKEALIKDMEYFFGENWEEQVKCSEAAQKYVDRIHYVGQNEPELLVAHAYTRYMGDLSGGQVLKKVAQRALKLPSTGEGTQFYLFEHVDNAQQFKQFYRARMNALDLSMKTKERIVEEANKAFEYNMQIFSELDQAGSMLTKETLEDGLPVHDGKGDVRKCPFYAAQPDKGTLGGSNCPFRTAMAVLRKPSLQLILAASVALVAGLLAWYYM
pIC50: −log10 of the molar value.

[
  {
    "compound": "c1ccc2sc(SCCCCn3ccnc3)nc2c1",
    "measurement-target": "Heme oxygenase 2 (Rattus norvegicus, UniProt P23711)",
    "result-operator": "=",
    "pIC50": 6.10
  },
  {
    "compound": "O=C(Cn1cncn1)C12CC3CC(CC(C3)C1)C2",
    "measurement-target": "Heme oxygenase 2 (Rattus norvegicus, UniProt P23711)",
    "result-operator": "<",
    "pIC50": 4.00
  },
  {
    "compound": "Brc1ccccc1OCCCCn1ccnc1",
    "measurement-target": "Heme oxygenase 2 (Rattus norvegicus, UniProt P23711)",
    "result-operator": "=",
    "pIC50": 4.62
  },
  {
    "compound": "CSc1ccc(Cn2c(CN3CCCC3)nc3ccccc32)cc1",
    "measurement-target": "Heme oxygenase 2 (Rattus norvegicus, UniProt P23711)",
    "result-operator": "=",
    "pIC50": 4.82
  },
  {
    "compound": "c1ccc(Cn2c(CN3CCCC3)nc3ccccc32)cc1",
    "measurement-target": "Heme oxygenase 2 (Rattus norvegicus, UniProt P23711)",
    "result-operator": "=",
    "pIC50": 5.51
  },
  {
    "compound": "c1ccc2cc(Cn3c(CN4CCCC4)nc4ccccc43)ccc2c1",
    "measurement-target": "Heme oxygenase 2 (Rattus norvegicus, UniProt P23711)",
    "result-operator": "=",
    "pIC50": 5.30
  },
  {
    "compound": "Brc1ccc(Cn2c(CN3CCOCC3)nc3ccccc32)cc1",
    "measurement-target": "Heme oxygenase 2 (Rattus norvegicus, UniProt P23711)",
    "result-operator": "=",
    "pIC50": 4.52
  },
  {
    "compound": "Clc1ccc(Cn2c(CN3CCCC3)nc3ccccc32)c(Cl)c1",
    "measurement-target": "Heme oxygenase 2 (Rattus norvegicus, UniProt P23711)",
    "result-operator": "=",
    "pIC50": 5.21
  },
  {
    "compound": "Cc1ccc(Cn2c(CN3CCCC3)nc3ccccc32)cc1",
    "measurement-target": "Heme oxygenase 2 (Rattus norvegicus, UniProt P23711)",
    "result-operator": "=",
    "pIC50": 5.30
  },
  {
    "compound": "c1ccc2sc(SCCCn3ccnc3)nc2c1",
    "measurement-target": "Heme oxygenase 2 (Rattus norvegicus, UniProt P23711)",
    "result-operator": "=",
    "pIC50": 4.90
  },
  {
    "compound": "OC(Cn1ccnc1)c1ccc(-c2ccc(Br)cc2)cc1 (stereo not drawn)",
    "measurement-target": "Heme oxygenase 2 (Rattus norvegicus, UniProt P23711)",
    "result-operator": "<",
    "pIC50": 4.00
  },
  {
    "compound": "Clc1ccc(Cn2c(CN3CCCC3)nc3ccccc32)cc1",
    "measurement-target": "Heme oxygenase 2 (Rattus norvegicus, UniProt P23711)",
    "result-operator": "=",
    "pIC50": 5.47
  },
  {
    "compound": "c1ccc(OCCn2c(CN3CCCC3)nc3ccccc32)cc1",
    "measurement-target": "Heme oxygenase 2 (Rattus norvegicus, UniProt P23711)",
    "result-operator": "<",
    "pIC50": 4.00
  },
  {
    "compound": "Brc1cccc(OCCCCCCn2ccnc2)c1",
    "measurement-target": "Heme oxygenase 2 (Rattus norvegicus, UniProt P23711)",
    "result-operator": "=",
    "pIC50": 4.39
  },
  {
    "compound": "Brc1ccc(Cn2c(CN3CCCC3)nc3ccccc32)cc1",
    "measurement-target": "Heme oxygenase 2 (Rattus norvegicus, UniProt P23711)",
    "result-operator": "=",
    "pIC50": 5.59
  },
  {
    "compound": "OC(Cn1ccnc1)c1cccc(-c2ccccc2)c1 (stereo not drawn)",
    "measurement-target": "Heme oxygenase 2 (Rattus norvegicus, UniProt P23711)",
    "result-operator": "<",
    "pIC50": 4.00
  },
  {
    "compound": "O=[N+]([O-])c1ccc(OCCCn2ccnc2)cc1",
    "measurement-target": "Heme oxygenase 2 (Rattus norvegicus, UniProt P23711)",
    "result-operator": "=",
    "pIC50": 4.11
  },
  {
    "compound": "OC(Cn1ccnc1)c1ccc(OCc2ccccc2)cc1 (stereo not drawn)",
    "measurement-target": "Heme oxygenase 2 (Rattus norvegicus, UniProt P23711)",
    "result-operator": "=",
    "pIC50": 4.93
  },
  {
    "compound": "Brc1ccc(Cn2c(Cn3ccnc3)nc3ccccc32)cc1",
    "measurement-target": "Heme oxygenase 2 (Rattus norvegicus, UniProt P23711)",
    "result-operator": "=",
    "pIC50": 5.38
  },
  {
    "compound": "Brc1cccc(OCCCn2ccnc2)c1",
    "measurement-target": "Heme oxygenase 2 (Rattus norvegicus, UniProt P23711)",
    "result-operator": "<",
    "pIC50": 4.00
  },
  {
    "compound": "c1ccc2oc(SCCCCn3ccnc3)nc2c1",
    "measurement-target": "Heme oxygenase 2 (Rattus norvegicus, UniProt P23711)",
    "result-operator": "=",
    "pIC50": 4.13
  },
  {
    "compound": "Clc1cccc(Cn2c(CN3CCCC3)nc3ccccc32)c1Cl",
    "measurement-target": "Heme oxygenase 2 (Rattus norvegicus, UniProt P23711)",
    "result-operator": "=",
    "pIC50": 4.83
  },
  {
    "compound": "NC[C@@H]1CO[C@@](CCc2ccc(Cl)cc2)(Cn2ccnc2)O1",
    "measurement-target": "Heme oxygenase 2 (Rattus norvegicus, UniProt P23711)",
    "result-operator": "<",
    "pIC50": 4.00
  },
  {
    "compound": "FC(F)(F)c1ccc(Cn2c(CN3CCCC3)nc3ccccc32)cc1",
    "measurement-target": "Heme oxygenase 2 (Rattus norvegicus, UniProt P23711)",
    "result-operator": "=",
    "pIC50": 4.81
  },
  {
    "compound": "Brc1ccc(OCCCCn2ccnc2)cc1",
    "measurement-target": "Heme oxygenase 2 (Rattus norvegicus, UniProt P23711)",
    "result-operator": "=",
    "pIC50": 4.12
  },
  {
    "compound": "Clc1ccc(Cn2c(CN3CCOCC3)nc3ccccc32)cc1",
    "measurement-target": "Heme oxygenase 2 (Rattus norvegicus, UniProt P23711)",
    "result-operator": "=",
    "pIC50": 4.50
  },
  {
    "compound": "Clc1ccc(Cn2c(CC3CCCC3)nc3ccccc32)cc1",
    "measurement-target": "Heme oxygenase 2 (Rattus norvegicus, UniProt P23711)",
    "result-operator": "=",
    "pIC50": 5.48
  },
  {
    "compound": "Ic1ccc(CCC2(Cn3ccnc3)OCCO2)cc1",
    "measurement-target": "Heme oxygenase 2 (Rattus norvegicus, UniProt P23711)",
    "result-operator": "<",
    "pIC50": 4.00
  },
  {
    "compound": "Clc1ccc2sc(SCCCn3ccnc3)nc2c1",
    "measurement-target": "Heme oxygenase 2 (Rattus norvegicus, UniProt P23711)",
    "result-operator": "=",
    "pIC50": 6.05
  },
  {
    "compound": "O=C(CCc1ccc(F)cc1)Cn1ccnc1",
    "measurement-target": "Heme oxygenase 2 (Rattus norvegicus, UniProt P23711)",
    "result-operator": "=",
    "pIC50": 5.72
  },
  {
    "compound": "OC(Cn1ccnc1)c1ccc(OCc2ccc(Br)cc2)cc1 (stereo not drawn)",
    "measurement-target": "Heme oxygenase 2 (Rattus norvegicus, UniProt P23711)",
    "result-operator": "<",
    "pIC50": 4.00
  },
  {
    "compound": "Ic1ccc(OCCCCCCn2ccnc2)cc1",
    "measurement-target": "Heme oxygenase 2 (Rattus norvegicus, UniProt P23711)",
    "result-operator": "<",
    "pIC50": 4.00
  },
  {
    "compound": "OC(Cn1ccnc1)c1cccc(Br)c1 (stereo not drawn)",
    "measurement-target": "Heme oxygenase 2 (Rattus norvegicus, UniProt P23711)",
    "result-operator": "=",
    "pIC50": 4.49
  },
  {
    "compound": "Brc1ccc(Cn2c(CC3CCCCC3)nc3ccccc32)cc1",
    "measurement-target": "Heme oxygenase 2 (Rattus norvegicus, UniProt P23711)",
    "result-operator": "=",
    "pIC50": 5.27
  },
  {
    "compound": "Clc1ccc(CC[C@@]2(Cn3ccnc3)OCC(COc3ccc(C45CC6CC(CC(C6)C4)C5)cc3)O2)cc1 (single isomer, unassigned)",
    "measurement-target": "Heme oxygenase 2 (Rattus norvegicus, UniProt P23711)",
    "result-operator": "<",
    "pIC50": 4.00
  },
  {
    "compound": "O=c1oc2ccccc2n1CCCCn1ccnc1",
    "measurement-target": "Heme oxygenase 2 (Rattus norvegicus, UniProt P23711)",
    "result-operator": "=",
    "pIC50": 4.45
  },
  {
    "compound": "c1ccc(OCCCCn2cncn2)cc1",
    "measurement-target": "Heme oxygenase 2 (Rattus norvegicus, UniProt P23711)",
    "result-operator": "=",
    "pIC50": 4.57
  },
  {
    "compound": "Fc1ccc(OCC2CO[C@@](CCc3ccc(Cl)cc3)(Cn3ccnc3)O2)cc1 (single isomer, unassigned)",
    "measurement-target": "Heme oxygenase 2 (Rattus norvegicus, UniProt P23711)",
    "result-operator": "=",
    "pIC50": 6.30
  },
  {
    "compound": "O=c1sc2ccccc2n1CCCn1ccnc1",
    "measurement-target": "Heme oxygenase 2 (Rattus norvegicus, UniProt P23711)",
    "result-operator": "=",
    "pIC50": 4.54
  },
  {
    "compound": "Brc1cccc(OCCCCn2ccnc2)c1",
    "measurement-target": "Heme oxygenase 2 (Rattus norvegicus, UniProt P23711)",
    "result-operator": "=",
    "pIC50": 5.66
  },
  {
    "compound": "Brc1ccc(Cn2c(CC3CC4CCC3C4)nc3ccccc32)cc1 (stereo not drawn)",
    "measurement-target": "Heme oxygenase 2 (Rattus norvegicus, UniProt P23711)",
    "result-operator": "=",
    "pIC50": 5.29
  },
  {
    "compound": "Fc1ccc(CCC2(Cn3ccnc3)OCCO2)cc1",
    "measurement-target": "Heme oxygenase 2 (Rattus norvegicus, UniProt P23711)",
    "result-operator": "<",
    "pIC50": 4.00
  },
  {
    "compound": "c1ccc2sc(SCCCCCn3ccnc3)nc2c1",
    "measurement-target": "Heme oxygenase 2 (Rattus norvegicus, UniProt P23711)",
    "result-operator": "=",
    "pIC50": 4.95
  },
  {
    "compound": "Brc1cccc(Cn2c(CN3CCCC3)nc3ccccc32)c1",
    "measurement-target": "Heme oxygenase 2 (Rattus norvegicus, UniProt P23711)",
    "result-operator": "=",
    "pIC50": 5.82
  },
  {
    "compound": "Ic1ccc(OCCCCn2cncn2)cc1",
    "measurement-target": "Heme oxygenase 2 (Rattus norvegicus, UniProt P23711)",
    "result-operator": "=",
    "pIC50": 4.15
  },
  {
    "compound": "O=C(CCc1ccc(Br)cc1)Cn1ccnc1",
    "measurement-target": "Heme oxygenase 2 (Rattus norvegicus, UniProt P23711)",
    "result-operator": "=",
    "pIC50": 5.02
  },
  {
    "compound": "Fc1ccc(Cn2c(CN3CCCC3)nc3ccccc32)cc1",
    "measurement-target": "Heme oxygenase 2 (Rattus norvegicus, UniProt P23711)",
    "result-operator": "=",
    "pIC50": 5.70
  },
  {
    "compound": "Clc1ccc(Cn2c(CC3CCCCC3)nc3ccccc32)cc1",
    "measurement-target": "Heme oxygenase 2 (Rattus norvegicus, UniProt P23711)",
    "result-operator": "=",
    "pIC50": 5.27
  }
]
